Assay: Elimination half life in Sprague-Dawley rat at 20 mg/kg, po by HPLC method
Assay type: ADME, organism-based
Conditions: in vivo, read-out: beta t1/2 (converted)
READOUT: half-life (h)
Write the number in h without appending the unit.

Query: Give a short answer stating reported half-life for CCOC(=O)C1=C(C)N=C2Sc3ccccc3N2C1c1cccc([N+](=O)[O-])c1 (stereo unspecified) .
Reply: 5.4

* * *

Tested on: Rattus norvegicus
Assay: Antihypertensive activity in Norwegian albino rat assessed as inhibition of systolic blood pressure at 10 mg/kg, po after 3 hrs by invasive carotid artery cannulation method relative to control
Assay type: functional
READOUT: inhibition in vivo at 10 mg/kg (%)
Write the number in % without appending the unit.

# COMPOUND, inhibition in vivo at 10 mg/kg [%]
measured = [
    ("COC(=O)C1=C(C)N=C2Sc3ccccc3N2C1c1ccc(Cl)cc1 (stereo not given)", 31),
    ("COC(=O)C1=C(C)N=C2Sc3ccccc3N2C1c1ccc([N+](=O)[O-])cc1 (stereo not given)", 31),
    ("COC(=O)C1=C(C)N=C2Sc3ccccc3N2C1c1ccc(O)c(OC)c1 (stereo not given)", 31),
    ("CCOC(=O)C1=C(C)N=C2Sc3ccccc3N2C1c1cccc([N+](=O)[O-])c1 (stereo not given)", 42.2),
]

Query: Give a short answer stating reported inhibition in vivo at 10 mg/kg for COC(=O)C1=C(C)N=C2Sc3ccccc3N2C1c1ccc(OC)cc1 (stereo not given) .
Reply: 31

* * *

Tested on: Rattus norvegicus
Test: Antihypertensive activity in Norwegian albino rat assessed as inhibition of systolic blood pressure at 10 mg/kg, po after 0.3 hrs by invasive carotid artery cannulation method relative to control
Assay type: functional
READOUT: inhibition in vivo at 10 mg/kg (%)
Write the number in % without appending the unit.

# COMPOUND, TARGET_OR_SYSTEM, inhibition in vivo at 10 mg/kg [%]
rows = [
    ("COC(=O)C1=C(C)N=C2Sc3ccccc3N2C1c1ccc(Cl)cc1 (stereo not given)", "Rattus norvegicus", 4.42),
]

Query: Give a short answer stating reported inhibition in vivo at 10 mg/kg for COC(=O)C1=C(C)N=C2Sc3ccccc3N2C1c1ccc(OC)cc1 (stereo not given) .
Reply: 7.08

Query: Give a short answer stating reported inhibition in vivo at 10 mg/kg for CCOC(=O)C1=C(C)N=C2Sc3ccccc3N2C1c1cccc([N+](=O)[O-])c1 (stereo not given) .
Reply: 20

Query: Give a short answer stating reported inhibition in vivo at 10 mg/kg for COC(=O)C1=C(C)N=C2Sc3ccccc3N2C1c1ccc(O)c(OC)c1 (stereo not given) .
Reply: 7.08

Query: Give a short answer stating reported inhibition in vivo at 10 mg/kg for COC(=O)C1=C(C)N=C2Sc3ccccc3N2C1c1ccc([N+](=O)[O-])cc1 (stereo not given) .
Reply: 4.42

* * *

Test: physchem
Settings: buffer, pH 7.4
Description: Lipophilicity, log P of the compound at pH 7.4 by shake flask method
Below, each entry is listed with its recorded logD.
Could you respond with only the numeric value?

These recorded examples may help you get a feel for the data.
# COMPOUND, MEASURED_VALUE
records = [
    ("COC(=O)C1=C(C)N=C2Sc3ccccc3N2C1c1ccc(O)c(OC)c1 (stereo not given)", 3.89),
    ("COC(=O)C1=C(C)N=C2Sc3ccccc3N2C1c1ccc(OC)cc1 (stereo not given)", 4.64),
    ("COC(=O)C1=C(C)N=C2Sc3ccccc3N2C1c1ccc(Cl)cc1 (stereo not given)", 5.44),
    ("COC(=O)C1=C(C)N=C2Sc3ccccc3N2C1c1ccc([N+](=O)[O-])cc1 (stereo not given)", 4.49),
]

Proceed to the following item.
Query: Give a short answer stating reported logD for CCOC(=O)C1=C(C)N=C2Sc3ccccc3N2C1c1cccc([N+](=O)[O-])c1 (stereo not given) .
Reply: 4.57
